target: GIPR (CHO-K1-hGIPR cells) (Homo sapiens); construct: host or cells: CHO-K1; test: FACS binding assay; details: competition with 20 nM GIP-057, 4° C., 1 hour, read-out: pIC50 Category (converted)
Sequence (P48546 22-466): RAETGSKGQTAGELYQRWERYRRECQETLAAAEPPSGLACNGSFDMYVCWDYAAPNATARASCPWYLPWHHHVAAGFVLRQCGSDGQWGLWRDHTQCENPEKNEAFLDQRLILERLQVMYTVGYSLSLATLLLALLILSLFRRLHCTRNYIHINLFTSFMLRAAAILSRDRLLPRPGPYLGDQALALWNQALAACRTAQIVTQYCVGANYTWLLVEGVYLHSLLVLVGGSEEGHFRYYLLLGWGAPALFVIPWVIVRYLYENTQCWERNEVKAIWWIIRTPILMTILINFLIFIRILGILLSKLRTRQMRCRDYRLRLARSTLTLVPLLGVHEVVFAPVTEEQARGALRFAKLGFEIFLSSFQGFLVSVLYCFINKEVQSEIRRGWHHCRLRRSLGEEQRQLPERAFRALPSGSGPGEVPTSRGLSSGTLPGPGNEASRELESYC
*1 amine or outer side, *2 acyl side, *3 side chain or, on linkers, in order; H or OH if unused. Where a SMILES comes first, the peptide text is derived from it. Bridges are numbered along the chain shown (N, C = ends). [ ]: non-standard residue; d: D form. X18 = O=C(CCN(CC(=O)[*:2])[*:1])NC[C@H](O)[C@@H](O)[C@H](O)[C@H](O)CO; Trp(5-Cl) = N[C@@H](Cc1c[nH]c2ccc(Cl)cc12)C(=O)O; Pyridine(2,6-diCH2) = c1cc(C[*:1])nc(C[*:2])c1; Trp(7-F) = N[C@@H](Cc1c[nH]c2c(F)cccc12)C(=O)O; Hyp = O=C(O)[C@@H]1C[C@@H](O)CN1; Thp = NC1(C(=O)O)CCOCC1
measuredParameter: IC50

compound: CC[C@H](C)[C@@H]1NC(=O)[C@H](CC(C)C)NC(=O)C2(CCOCC2)NC(=O)[C@@H](NC(=O)[C@@H](CC(C)C)NC(=O)[C@H](CCC(=O)O)NC(=O)CN(CCC(=O)NC[C@H](O)[C@@H](O)[C@H](O)[C@H](O)CO)C(=O)[C@H](Cc2c[nH]c3ccc(Cl)cc23)NC(=O)[C@H](Cc2c[nH]c3ccccc23)NC(=O)[C@H](CC(=O)O)NC(C)=O)CSCc2cccc(n2)CSC[C@@H](C(N)=O)NC1=O [GIP-176] (Ac-DW[Trp(5-Cl)][X18]E[dL]C[Thp]LIC-NH2; linker 7-11 via Pyridine(2,6-diCH2))
measuredParameter: IC50
result: < 10 nM
--
compound: CC[C@H](C)[C@@H]1NC(=O)[C@H](CC(C)C)NC(=O)C2(CCOCC2)NC(=O)[C@@H](NC(=O)[C@@H](CC(C)C)NC(=O)[C@H](CCC(=O)O)NC(=O)[C@@H]2C[C@@H](O)CN2C(=O)[C@H](Cc2c[nH]c3c(F)cccc23)NC(=O)[C@H](Cc2c[nH]c3ccccc23)NC(=O)[C@H](CC(=O)O)NC(C)=O)CSCc2cccc(n2)CSC[C@@H](C(N)=O)NC1=O [GIP-227] (Ac-DW[Trp(7-F)][Hyp]E[dL]C[Thp]LIC-NH2; linker 7-11 via Pyridine(2,6-diCH2))
measuredParameter: IC50
result: < 10 nM
